Target: human serum albumin (Homo sapiens)
Sequence (P02768 25-609): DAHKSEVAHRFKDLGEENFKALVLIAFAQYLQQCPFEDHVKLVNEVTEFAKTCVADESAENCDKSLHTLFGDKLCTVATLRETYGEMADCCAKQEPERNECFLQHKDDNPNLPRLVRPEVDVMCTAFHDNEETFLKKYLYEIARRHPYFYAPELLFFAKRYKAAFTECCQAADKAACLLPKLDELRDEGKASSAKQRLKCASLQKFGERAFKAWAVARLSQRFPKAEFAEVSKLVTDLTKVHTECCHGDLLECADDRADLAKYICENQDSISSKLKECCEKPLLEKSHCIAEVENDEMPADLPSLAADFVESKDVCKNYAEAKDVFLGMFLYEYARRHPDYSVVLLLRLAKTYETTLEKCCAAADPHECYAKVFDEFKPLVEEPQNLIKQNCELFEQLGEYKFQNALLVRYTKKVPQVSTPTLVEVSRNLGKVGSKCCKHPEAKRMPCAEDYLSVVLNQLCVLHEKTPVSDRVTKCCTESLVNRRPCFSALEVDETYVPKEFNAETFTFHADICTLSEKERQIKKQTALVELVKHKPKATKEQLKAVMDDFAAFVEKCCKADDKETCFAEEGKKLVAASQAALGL
Assay: binding constant to human serum albumin (TRANSIL technology)
Conditions: human
Text: The effective molecular weight (MW) is obtained simply from the respective empirical formula of the substance. The waters solubilities and the typical administered dosages of these commercially available products are furthermore known from the literature. The ADME maps in FIGS. 5 to 10 show by way of example a selection of commercially available pharmaceutical substances. […]
measurement_type: LogHSA
Please reply with the number alone, leaving off any unit.

Consider the worked cases shown below.
Cc1onc(-c2c(Cl)cccc2Cl)c1C(=O)N[C@@H]1C(=O)N2[C@@H]1SC(C)(C)[C@@H]2C(=O)O [Dicloxacillin]    −4.064
CN/C(=N/CCSCc1nc[nH]c1C)NC#N [Cimetidine]    −1.876
Cc1nccn1CC1CCc2c(c3ccccc3n2C)C1=O (stereo not drawn) [Ondansetron]    −3.237
COC(=O)C1=C(C)NC(C)=C(C(=O)OCC(C)C)C1c1ccccc1[N+](=O)[O-] (stereo not drawn) [Nisoldipine]    −5.319
CCCCNc1cc(C(=O)O)cc(S(N)(=O)=O)c1Oc1ccccc1 [Bumetanide]    −5.076

# input // returns reported LogHSA for input Cc1nnc(NS(=O)(=O)c2ccc(N)cc2)s1 [Sulfamethizole]
# output −4.000

# input Follow-up item: CCn1cc(C(=O)O)c(=O)c2cc(F)c(N3CCNCC3)nc21 [Enoxacin]
# output −2.278

# input Follow-up item: O=C(CCCN1CCC(O)(c2ccc(Cl)cc2)CC1)c1ccc(F)cc1 [Haloperidol]
# output −2.745

# input Follow-up item: CC(C)NCC(O)COc1cccc2[nH]ccc12 (stereo not drawn) [Pindolol]
# output −2.699

----------
Here, each record is paired with measured LogHSA data.
molecular target: human serum albumin (Homo sapiens); experiment: binding constant to human serum albumin (TRANSIL technology); details: human
Please reply with the number alone, leaving off any unit.

C[C@H](CS)C(=O)N1CCC[C@H]1C(=O)O    −3.222
CC(=O)Oc1ccccc1C(=O)O    −3.097
CN1CCN(C2=Nc3cc(Cl)ccc3Nc3ccccc32)CC1    −3.814
N=C(N)N/N=C/c1c(Cl)cccc1Cl    −3.745
CO/N=C(\C(=O)N[C@@H]1C(=O)N2C(C(=O)O)=C(CSc3nc(=O)c(=O)[nH]n3C)CS[C@H]12)c1csc(N)n1    −3.585
COCCc1ccc(OCC(O)CNC(C)C)cc1 (stereo not drawn)    −2.000

# input // returns reported LogHSA for input CC(C)NCC(O)COc1cccc2ccccc12 (stereo not drawn)
# output −4.028

# input Follow-up item: CN(C)CCCN1c2ccccc2Sc2ccc(Cl)cc21
# output −3.284

----------
experiment: membrane affinity as a measure of the lipophilicity (TRANSIL technology); type: physicochemical
Here, each record is paired with measured LogMA data.
Please reply with the number alone, leaving off any unit.

Consider the worked cases shown below.
CN1C(=O)CN=C(c2ccccc2)c2cc(Cl)ccc21    3.170
COc1ccc([C@@H]2Sc3ccccc3N(CCN(C)C)C(=O)[C@@H]2OC(C)=O)cc1    2.544

For the next question, use this compound.
# input // returns reported LogMA for input Cn1c(=O)c2[nH]cnc2n(C)c1=O
# output 0.886

----------
experiment: membrane affinity as a measure of the lipophilicity (TRANSIL technology); format: physicochemical
Label key: true means LogMA under 1; false means LogMA of 1 or more.

Solved cases below.
CC(CCc1ccccc1)NCC(O)c1ccc(O)c(C(N)=O)c1 (stereo not drawn)    false
Cc1nccn1CC1CCc2c(c3ccccc3n2C)C1=O (stereo not drawn)    false
CC1(C)S[C@@H]2[C@H](NC(=O)[C@H](N)c3ccccc3)C(=O)N2[C@H]1C(=O)O    false
O=C(O)c1cn(C2CC2)c2cc(N3CCNCC3)c(F)cc2c1=O    true
CC(=O)Oc1ccccc1C(=O)O    true

# input For this compound, is LogMA lower than 1? CC(=O)Nc1ccc(O)cc1
# output true

# input Follow-up item: COC(=O)C1=C(C)NC(C)=C(C(=O)OC(C)C)C1c1cccc2nonc12 (stereo not drawn)
# output false

# input Follow-up item: CCN(CC)CCNC(=O)c1ccc(N)cc1 [Procainamide]
# output false

# input Follow-up item: CCn1cc(C(=O)O)c(=O)c2cc(F)c(N3CCNCC3)cc21
# output true

# input Follow-up item: COc1cc2nc(N3CCN(C(=O)C4CCCO4)CC3)nc(N)c2cc1OC (stereo not drawn)
# output false

# input Follow-up item: CO/N=C(\C(=O)N[C@@H]1C(=O)N2C(C(=O)O)=C(COC(N)=O)CS[C@H]12)c1ccco1
# output true

# input Follow-up item: NS(=O)(=O)c1cc(C(=O)O)c(NCc2ccco2)cc1Cl [Furosemide]
# output false

# input Follow-up item: C[C@]12CC[C@H]3[C@@H](CCC4=CC(=O)CC[C@@]43C)[C@@H]1CC[C@@H]2O
# output false

# input Follow-up item: C[C@H](CS)C(=O)N1CCC[C@H]1C(=O)O
# output true
